- Test system: OVCAR-5
- assay-comment: NCI tumour cell line growth inhibition, 48 h
Active and inactive are the calls of the source. Rule as the data show it: active = GI50 up to about 1.1 µM and inactive = higher.

| compound | experimental-target | GI50 |
| --- | --- | --- |
| COc1ccc(Cl)cc1NC(=O)O/N=C(\Cl)C(C)C | OVCAR-5 | 18.4 µM (inactive) |
| Nn1c(S)nnc1N/N=C1/C(=O)Nc2ccccc21 | OVCAR-5 | > 100 µM (inactive) |
| COc1cc(CNCc2cc(OC)c(OC)c(OC)c2)cc(OC)c1OC | OVCAR-5 | > 10 µM (inactive) |
| Cc1ccc(Cl)c2c(=O)cc(-c3ccccc3)[nH]c12 | OVCAR-5 | 71.6 µM (inactive) |
| CCCCN(CCCC)C(=O)C(=O)C(C)C(=O)CC (stereo not drawn) | OVCAR-5 | > 100 µM (inactive) |
| COC(=O)CCCc1ccc2c(c1)CC1(C2)Cc2cc3c(cc2C1)CCCC3 | OVCAR-5 | > 100 µM (inactive) |
| c1ccc2cc(CN3CCC(C4CCN(Cc5ccc6ccccc6c5)CC4)CC3)ccc2c1 | OVCAR-5 | 10.1 µM (inactive) |
| CCC1CC(C)C(O)/C=C/C=C/CC(C)OC(=O)CC(O)C(OC)C1OC1OC(C)CC(O)(C(C)=O)C1O (stereo not drawn) | OVCAR-5 | > 100 µM (inactive) |

====

- Test system: KM12
- assay-comment: NCI tumour cell line growth inhibition, 48 h
The source made the active and inactive calls. No stated cut-off is given here; in the data, active = GI50 up to about 1.1 µM and inactive = higher. Where a SMILES comes first, the peptide text is derived from it.
Catalogue of GI50 values

| molecule | GI50 |
| --- | --- |
| CCc1ccccc1NC(=O)C1=C(C)NC(C)=C(C(=O)Nc2c(CC)cccc2CC)C1c1ccc2c(c1)OCO2 (centres undefined) | 16.1 µM (inactive) |
| O=c1[nH]nc(Cc2ccc(Cl)cc2)n1/N=C/c1ccc([N+](=O)[O-])o1 | 2.03 µM (inactive) |
| ClC(Cl)=C(Cl)C1(Cl)CC1COCc1ccccc1 (centres undefined) | 35 µM (inactive) |
| COc1cccc(Nc2nc(N)nc(N)c2N=O)c1 | 29.1 µM (inactive) |
| N#CC1(C#N)C(C#N)(C#N)C1(C#N)C(N)=O | > 100 µM (inactive) |
| OCCCC(O)(c1ccccc1)c1ccccc1 | > 100 µM (inactive) |
| O/N=C(/CC(O)(C(F)(F)F)C(F)(F)F)c1ccccc1 | > 10 µM (inactive) |
| C/C(Nc1ccc(Cl)cc1Cl)=C1/CCOC1=O | > 100 µM (inactive) |
| COc1nc2c(c(O)c(C)c(=O)n2OC2OC(COC(C)=O)C(OC(C)=O)C(OC(C)=O)C2OC(C)=O)c(=O)n1C (centres undefined) | > 100 µM (inactive) |
| C/C=C1/CN2CCC34c5ccccc5N(C)C23C2CC1C4(C(=O)OC)C(OC(C)=O)O2 (centres undefined) | > 100 µM (inactive) |
| Cc1csc(/N=C(/NCCN2CCOCC2)Nc2nc(C)cs2)n1 | > 100 µM (inactive) |
| O=C1C2CCCCC2C(=O)N1n1c(Cc2ccc(Cl)cc2)n[nH]c1=O (centres undefined) | > 100 µM (inactive) |
| CC1=C(CO)C(=O)O[C@@H]([C@@H](C)[C@H]2CC[C@H]3[C@@H]4C[C@@H](O)[C@@]5(O)CC=CC(=O)[C@]5(C)[C@H]4CC[C@]23C)C1 | 19.8 µM (inactive) |
| CCOC(=O)/C=C\c1c(Cl)n(-c2ccccc2)c(=O)n(-c2ccccc2)c1=O | 19.1 µM (inactive) |
| O=C(c1ccco1)n1c2ccc(Br)cc2c2nc3ccccc3nc21 | 26.8 µM (inactive) |
| N#CCOc1ccc(/C=C/C(=O)c2ccc(Cl)cc2)cc1 | 22.4 µM (inactive) |
| CCC(C)C1NC(=O)C2CCCN2C(=O)CNC(=O)C(C)NC(=O)C(Cc2ccccc2)NC(=O)C(C(C)C)NC1=O (centres undefined) (cyclo(GPIVFA); configuration not given here) | 61.2 µM (inactive) |
| O=C(c1nc2ccc(Cl)cc2[nH]c1=O)C(O)c1cccc([N+](=O)[O-])c1 (centres undefined) | 57 µM (inactive) |
| COc1ccc(N2C(=O)CC(c3c[nH]c4ncccc34)C2=O)cc1 (centres undefined) | > 100 µM (inactive) |
